# System: NOMO1
# assay info: cell viability relative to DMSO control; higher = less cytotoxic
# condition label: RPMI 5 mM glucose + 10% dialyzed FBS; 48 h; 0.000781 µM

{"compound": "COc1cc2nc(N(C)CCCNC(=O)C3CCCO3)nc(N)c2cc1OC (configuration not stated)", "test system": "NOMO1", "units symbol": "%", "cell viability": 61.6}
{"compound": "COC[C@H]1OC(=O)C2=COC3=C2[C@@]1(C)\\C4=C(C5CCC(=O)[C@@]5(C)C[C@H]4OC(C)=O)/C3=O (some centres not stated)", "test system": "NOMO1", "units symbol": "%", "cell viability": 82}
{"compound": "CN(C)CCOc1cc(-c2cn[nH]c2)ccc1NC(=O)C1COc2ccccc2O1 (configuration not stated)", "test system": "NOMO1", "units symbol": "%", "cell viability": 98.5}
{"compound": "CCCCCOC(=O)NC\\1=N\\C(=O)N(\\C=C1F)[C@@H]2O[C@H](C)[C@@H](O)[C@H]2O", "test system": "NOMO1", "units symbol": "%", "cell viability": 99.2}
{"compound": "Cc1ccccc1N1C(=O)c2cc([S+](N)(=O)[O-])c(Cl)cc2NC1C (configuration not stated)", "test system": "NOMO1", "units symbol": "%", "cell viability": 114}
{"compound": "Cc1c(CN2CCN(C(=O)[C@H](C)O)CC2)sc2c(N3CCOCC3)nc(-c3cnc(N)nc3)nc12", "test system": "NOMO1", "units symbol": "%", "cell viability": 79.7}
{"compound": "CN\\1C(=O)/C(=C(\\N=C1N2CCCC[S+]2([O-])=O)C(=O)NCC3=CC=C(F)C=C3)O", "test system": "NOMO1", "units symbol": "%", "cell viability": 123}
{"compound": "O=NN(CCCl)C(=O)NCCCl", "test system": "NOMO1", "units symbol": "%", "cell viability": 91.4}
{"compound": "CCc1cc(Nc2nccc(-c3c(-c4ccc(OC)c(C(=O)Nc5c(F)cccc5F)c4)nc4ccccn34)n2)c(OC)cc1N1CCC(N2CCN([S+](C)(=O)[O-])CC2)CC1", "test system": "NOMO1", "units symbol": "%", "cell viability": 84.8}
{"compound": "COC1=C(N2CCNC(C)C2)C(=CC3=C1N(\\C=C(C(O)=O)/C3=O)C4CC4)F (configuration not stated)", "test system": "NOMO1", "units symbol": "%", "cell viability": 97.6}
{"compound": "COc1ccc(C[C@@H](C)[C@@H](C)Cc2ccc(OC)c(OC)c2)cc1OC", "test system": "NOMO1", "units symbol": "%", "cell viability": 84}
{"compound": "C/C=C(/C)C(=O)O[C@H]1C(C)=C2[C@H]([C@@H]1OC(=O)CCCCCCC)[C@@](C)(OC(C)=O)C[C@H](OC(=O)CCC)[C@@]1(O)[C@H]2OC(=O)[C@@]1(C)O", "test system": "NOMO1", "units symbol": "%", "cell viability": 117}
{"compound": "CC1CCC(C(=O)N(c2cc(C#CC(C)(C)C)sc2C(=O)O)C2CCC(O)CC2)CC1 (configuration not stated)", "test system": "NOMO1", "units symbol": "%", "cell viability": 97.5}
{"compound": "CC1(C)O[C@@H]2C[C@H]3[C@@H]4CCC5=CC(=O)C=C[C@]5(C)[C@@]4(F)[C@@H](O)C[C@]3(C)[C@]2(C(=O)CO)O1", "test system": "NOMO1", "units symbol": "%", "cell viability": 106}
{"compound": "CNC(=O)c1ccc(-c2cnc3ncc(Cc4ccc5ncccc5c4)n3n2)cc1F", "test system": "NOMO1", "units symbol": "%", "cell viability": 116}
{"compound": "COC1=NC(=NC(=C1N\\C2=N\\CCN2)Cl)C", "test system": "NOMO1", "units symbol": "%", "cell viability": 86.2}
{"compound": "CN[S+](=O)([O-])Cc1ccc2[nH]cc(CCN(C)C)c2c1", "test system": "NOMO1", "units symbol": "%", "cell viability": 113}
